All figures here come from the supplement of paper PMC11061612.

# Tested on: TK (B-Cell Non-Hodgkin's Lymphoma)
# test.protocol: Bliss excess, mean over the matrix (fraction); higher = more synergy;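 note: after 72 h of two-drug dosing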

[
  {
    "compound": "CN(CCO)CC[C@H](CSc1ccccc1)Nc1ccc(S(=O)(=O)NC(=O)c2ccc(N3CCC([C@@H](O)c4ccccc4-c4ccc(Cl)cc4)CC3)cc2)cc1S(=O)(=O)C(F)(F)F [AZD4320] + C=CCn1c(=O)c2cnc(Nc3ccc(N4CCN(C)CC4)cc3)nc2n1-c1cccc(C(C)(C)O)n1 [AZD1775] (first compound max 1 µM, partner max 1 µM)",
    "Bliss excess": 0.0407
  },
  {
    "compound": "Cc1c2c(nn1C)CSCc1cc(n(C)n1)CSc1cc(c3ccccc3c1)OCCCc1c(C(=O)O)n(C)c3c-2c(Cl)ccc13 [AZD5991] + C=CCn1c(=O)c2cnc(Nc3ccc(N4CCN(C)CC4)cc3)nc2n1-c1cccc(C(C)(C)O)n1 [AZD1775] (first compound max 1 µM, partner max 1 µM)",
    "Bliss excess": -0.0721
  },
  {
    "compound": "COc1cccc(OCCCN)c1-c1cc(Nc2cnc(C#N)cn2)n[nH]1 [Prexasertib] + C[C@@H]1COCCN1C2=NC(=NC(=C2)C3(CC3)[S@](=N)(=O)C)C4=C5C=CNC5=NC=C4 [AZD6738] (first compound max 1 µM, 7x7, partner max 10 µM)",
    "Bliss excess": -0.083
  },
  {
    "compound": "COc1cc2ncnc(Nc3ccc(F)c(Cl)c3)c2cc1OCCCN1CCOCC1 [Gefitinib] + CC(C)n1c(=O)n(C)c2cnc3cc(F)c(-c4ccc(OCCCN5CCCCC5)nc4)cc3c21 [AZD1390] (first compound max 10 µM, 7x7, partner max 0.3 µM)",
    "Bliss excess": -0.0495
  },
  {
    "compound": "Cc1c2c(nn1C)CSCc1cc(n(C)n1)CSc1cc(c3ccccc3c1)OCCCc1c(C(=O)O)n(C)c3c-2c(Cl)ccc13 [AZD5991] + CC1(C)CCC(CN2CCN(c3ccc(C(=O)NS(=O)(=O)c4ccc(NCC5CCOCC5)c([N+](=O)[O-])c4)c(Oc4cnc5[nH]ccc5c4)c3)CC2)=C(c2ccc(Cl)cc2)C1 [Venetoclax] (first compound max 1 µM, 7x7, partner max 1 µM)",
    "Bliss excess": 0.174
  },
  {
    "compound": "COc1nnc2ccc(N3CCC(c4ccc(OCCN5CCN(C)C(=O)[C@H]5C)cc4)CC3)nn12 [AZD5153] + CC1(C)CCC(CN2CCN(c3ccc(C(=O)NS(=O)(=O)c4ccc(NCC5CCOCC5)c([N+](=O)[O-])c4)c(Oc4cnc5[nH]ccc5c4)c3)CC2)=C(c2ccc(Cl)cc2)C1 [Venetoclax] (first compound max 1 µM, 7x7, partner max 1 µM)",
    "Bliss excess": 0.0193
  }
]

---

# Test system: JURL-MK1 (Chronic Myelogenous Leukemia)
# test.protocol: Bliss excess, mean over the matrix (fraction); higher = more synergy

[
  {
    "molecule": "Cc1cc2ncnn2cc1Nc1ncc2c(n1)n(C1CCOCC1)c(=O)n2C [AZD7648] + O=C(c1cc(Cc2n[nH]c(=O)c3ccccc23)ccc1F)N1CCN(C(=O)C2CC2)CC1 [Olaparib] (first compound max 10 µM, 7x7, partner max 10 µM)",
    "Bliss excess": -0.0253
  },
  {
    "molecule": "Cc1cc2ncnn2cc1Nc1ncc2c(n1)n(C1CCOCC1)c(=O)n2C [AZD7648] + CCN(CCO)CCCOc1ccc2c(Nc3cc(CC(=O)Nc4cccc(F)c4)[nH]n3)ncnc2c1 [AZD2811] (first compound max 10 µM, 7x7, partner max 1 µM)",
    "Bliss excess": -0.0046
  },
  {
    "molecule": "CC(=O)c1c(C)c2cnc(Nc3ccc(N4CCNCC4)cn3)nc2n(C2CCCC2)c1=O [Palbociclib] + CN(CC[C@H](CSC1=CC=CC=C1)NC2=C(C=C(C=C2)S(=O)(=O)NC(=O)C3=CC=C(C=C3)N4CCC(CC4)[C@H](C5=CC=CC=C5C6=CC=C(C=C6)Cl)O)S(=O)(=O)C(F)(F)F)CCO [AZD4320] (first compound max 10 µM, 7x7, partner max 1 µM)",
    "Bliss excess": -0.075
  },
  {
    "molecule": "COc1cccc2c1C(=O)c1c(O)c3c(c(O)c1C2=O)C[C@@](O)(C(=O)CO)C[C@@H]3O[C@H]1C[C@H](N)[C@H](O)[C@H](C)O1 [Doxorubicin] + Cc1cc2ncnn2cc1Nc1ncc2c(n1)n(C1CCOCC1)c(=O)n2C [AZD7648] (first compound max 1 µM, 7x7, partner max 10 µM)",
    "Bliss excess": 0.0792
  },
  {
    "molecule": "NC1(C(=O)N[C@@H](CCO)c2ccc(Cl)cc2)CCN(c2ncnc3[nH]ccc23)CC1 [Capivasertib] + C[C@@H]1COCCN1C2=NC(=NC(=C2)C3(CC3)[S@](=N)(=O)C)C4=C5C=CNC5=NC=C4 [AZD6738] (first compound max 10 µM, 7x7, partner max 10 µM)",
    "Bliss excess": 0.0117
  },
  {
    "molecule": "CN(CCO)CC[C@H](CSc1ccccc1)Nc1ccc(S(=O)(=O)NC(=O)c2ccc(N3CCC([C@@H](O)c4ccccc4-c4ccc(Cl)cc4)CC3)cc2)cc1S(=O)(=O)C(F)(F)F [AZD4320] + CCN(CCO)CCCOc1ccc2c(Nc3cc(CC(=O)Nc4cccc(F)c4)[nH]n3)ncnc2c1 [AZD2811] (first compound max 1 µM, 7x7, partner max 1 µM)",
    "Bliss excess": 0.0346
  },
  {
    "molecule": "C=CCn1c(=O)c2cnc(Nc3ccc(N4CCN(C)CC4)cc3)nc2n1-c1cccc(C(C)(C)O)n1 [AZD1775] + C1CN(CCC1(C(=O)N[C@@H](CCO)C2=CC=C(C=C2)Cl)N)C3=NC=NC4=C3C=CN4 [Capivasertib] (first compound max 3 µM, partner max 3 µM)",
    "Bliss excess": 0.0007
  }
]
